test system: Liver microsomes; assay: Drug metabolism in human liver microsomes assessed as half life of glucuronidation at 10 uM over 30 mins by LC-MS analysis in the presence of UDGPA; assay type: ADME, Microsome; settings: microsomes, 0.5 h, 10 µM
What t1/2 was measured for each of the following?
Numbers only, in min.

Known results for compounds:
INSERT INTO assay_data (compound, tested_on, assay_endpoint, numeric_readout) VALUES
  ('O=C(O)CC1(Cc2ccccc2)C2CC3CC(C2)CC1C3 (centres undefined)', 'Liver microsomes', 't1/2', 1.9),
  ('N#Cc1cccc(C2(CC(=O)O)C3CC4CC(C3)CC2C4)c1 (centres undefined)', 'Liver microsomes', 't1/2', 4.2),
  ('COC12CC3CC(C1)C(CC(=O)O)(c1ccc(F)cc1)C(C3)C2 (centres undefined)', 'Liver microsomes', 't1/2', 8.7);

Next, consider the following compound.
Returns the measured t1/2 for the input compound. Input: CC1(O)C2CC3CC(C2)C(CC(=O)O)(c2ccc(F)cc2)C1C3 (centres undefined)
11
